Assay Target: T1, cynomolgus monkey IL-2Rα/CD25 subunit (cynomolgus monkey, UniProt H6WS54 22-213)
T1 construct: also called Cyno IL-2R subunit
T1 sequence: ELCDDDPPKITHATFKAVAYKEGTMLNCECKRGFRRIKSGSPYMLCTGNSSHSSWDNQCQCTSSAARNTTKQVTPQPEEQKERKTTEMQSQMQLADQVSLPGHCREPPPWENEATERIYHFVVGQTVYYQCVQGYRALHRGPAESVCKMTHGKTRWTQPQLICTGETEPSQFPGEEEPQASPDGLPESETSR
Method Notes: ELISA, bivalent; EC50 cyno vs human subunit
Experimental: Monospecific monovalent and bivalent IL-2Rα-, IL-2Rβ- and IL-2Rγ-specific antibodies that were selected on human IL-2R subunits, were evaluated for their cross-reactivity in an ELISA. Human and cynomolgus monkey receptor subunits (Acrobiosystems, KactusBiosystems) were coated at 1 μg/mL in PBS (pH 7.4) in a Maxisorp plate (Nunc) and incubated overnight at 4° C. […] Absorbance was measured at 450 nm with the reference wavelength of 620 nm using spectrophotometer. […]
Response field label: string, one of Met (Fold change strictly below 1 fold) or Not met.

{"columns": ["Binder", "Group"],
 "data": [
  ["7-MP01G08 VHH-hFc, monospecific bivalent (Fc fusion, IgG1 Fc LALA-PG; also called 07-MP01G08; not shown: human IgG1 CH2 and CH3 domains (Fc)) EVQLVESGGGLVQAGGSLRLSCAASGRAFSMYNMGWFRQAPGKEREFVAATGWSGANTPYADSVKGRFTISRDNTQNTVYLQMNSLKPEDTATYYCAADSIRLRSDVTRIPLEYDYWGQGTQVTVSS", "Met"],
  ["4-MP01F04 VHH-hFc, monospecific bivalent (Fc fusion, IgG1 Fc LALA-PG; not shown: human IgG1 CH2 and CH3 domains (Fc)) QVQLVESGGGLVQAGGSLRLSCAASGGTFRTRNMGWFRRAPGKEREFVAAVSWNVDNKLYADSVKGRFTISRDNGRNMVYLQMNSLKPEDTAVYYCAADNIPLSSDMRPTATEYDYWGQGTQVTVSS", "Not met"],
  ["1-MP01H01 VHH-hFc, monospecific bivalent (Fc fusion, IgG1 Fc LALA-PG; not shown: human IgG1 CH2 and CH3 domains (Fc)) EVQLVESGGGLVQAGGSLRLSCAASGRTFRTHNMGWFRRAPGKEREFVAAISWNVDNTLYADSVKGRFTISRDNGRNMVYLQMNSLKPEDTAVYYCAADNIPLSSDVAATATEYDYWGQGTQVTVSS", "Not met"],
  ["5-MP01F05 VHH-hFc, monospecific bivalent (Fc fusion, IgG1 Fc LALA-PG; not shown: human IgG1 CH2 and CH3 domains (Fc)) EVQLVESGGGLVQAGGSLRLSCAASIRAFTTWSMAWFRQAPGKEREYVARINVSGSVTYYADFVKGRFTISRDNAKKTMYLEMNNLKPEDTALYYCAADRTGVGTNDYNYWGQGTQVTVSS", "Not met"],
  ["2-MP01A02 VHH-hFc, monospecific bivalent (Fc fusion, IgG1 Fc LALA-PG; also called anti-IL-2Rα Ab 2; not shown: human IgG1 CH2 and CH3 domains (Fc)) QVQLVESGGGLVQPGGSLRLSCATSGFTFRNNFMSWVRQAPGKGLEWVSTISYGGESTTYAESVKGRFTISRDNAKNTLYLQMNNLKPEDTAVYYCAKATSYDSIRSGSRGQGTQVTVSS", "Not met"]
]}
